target_or_test_system: BRS-3 (Homo sapiens, UniProt P32247)
Sequence (P32247 whole entry): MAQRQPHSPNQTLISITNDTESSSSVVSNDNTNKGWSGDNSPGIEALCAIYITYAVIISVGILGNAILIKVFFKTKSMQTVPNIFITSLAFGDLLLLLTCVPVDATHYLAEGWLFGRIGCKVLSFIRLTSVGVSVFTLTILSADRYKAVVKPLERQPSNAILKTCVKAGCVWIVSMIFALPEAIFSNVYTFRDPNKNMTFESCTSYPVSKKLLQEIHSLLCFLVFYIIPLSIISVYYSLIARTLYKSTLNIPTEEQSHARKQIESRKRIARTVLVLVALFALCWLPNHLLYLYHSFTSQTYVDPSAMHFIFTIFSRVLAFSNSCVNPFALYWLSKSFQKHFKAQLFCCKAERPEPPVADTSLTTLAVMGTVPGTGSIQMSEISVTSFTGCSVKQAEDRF
experiment: Inhibition of specific 125I-BA1 binding to NCI-H1299-BRS-3 cells
run_conditions: read-out: IC50, inhibition of specific 125I-BA1 binding; NCI-H1299-BRS-3 cells, 37°C; mean ± S.E. of 4 determinations
experimental_endpoint: IC50

## Task Quick one: IC50 for C[C@@](Cc1c[nH]c2ccccc12)(NC(=O)Nc1ccc([N+](=O)[O-])cc1)C(=O)NCC1(c2ccccn2)CCCCC1 ?
## Result > 2000 nM
